system tested: T1, recombinant human LAG3 expressed with a C-terminal mouse IgG2a mFc tag (human)
T1 construct: Called dimeric; also called hLAG3-mFc; hLAG3 dimer
T1 chain: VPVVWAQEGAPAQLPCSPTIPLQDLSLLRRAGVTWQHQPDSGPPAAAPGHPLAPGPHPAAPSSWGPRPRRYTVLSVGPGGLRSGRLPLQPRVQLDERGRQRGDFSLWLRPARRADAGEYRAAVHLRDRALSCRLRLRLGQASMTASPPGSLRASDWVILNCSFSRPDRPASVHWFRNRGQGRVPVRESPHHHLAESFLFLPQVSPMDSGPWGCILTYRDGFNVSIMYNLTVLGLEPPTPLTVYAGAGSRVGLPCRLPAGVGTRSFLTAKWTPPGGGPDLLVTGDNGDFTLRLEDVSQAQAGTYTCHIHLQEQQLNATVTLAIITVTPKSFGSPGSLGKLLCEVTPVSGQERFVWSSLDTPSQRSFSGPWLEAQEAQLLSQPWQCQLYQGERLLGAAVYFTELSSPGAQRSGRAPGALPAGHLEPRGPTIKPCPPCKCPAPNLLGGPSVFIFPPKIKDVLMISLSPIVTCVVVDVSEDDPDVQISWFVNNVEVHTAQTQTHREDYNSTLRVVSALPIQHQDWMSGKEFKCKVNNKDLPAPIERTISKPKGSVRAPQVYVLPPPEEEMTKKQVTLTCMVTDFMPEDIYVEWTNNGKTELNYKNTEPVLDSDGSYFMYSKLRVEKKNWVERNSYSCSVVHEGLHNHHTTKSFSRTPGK
method description: SPR, mAb captured, 37 C
value kind: pKd
# pKd = -log10(concentration in molar units)

binder	assay result
H4H17819P (antibody, human IgG4, V domains shown, H4H = human IgG4 Fc with S108P hinge mutation) VH: EVQLVESGGGLVQPGGSLRLSCVASGFTFSLYAMTWVRQVPGKGLEWVSTISGSGGGTYYTDSVKGRFTISRDNSKNTLYLQMNSLRADDTAVFYCTKESTTGTYSYFYGMDVWGQGTTVTVSS VL: DIQMTQSPSSLSASVGDRVTITCRASQTISSYLNWYQQKPGKAPKLLIYAASSLQSGVPSRFSGSGSGTDFTLTLSGLQPEDFATYYCQQSYSTPLTFGGGTKVEIK	9.50

[in] pKd for H4sH15479P (antibody, V domains shown) VH: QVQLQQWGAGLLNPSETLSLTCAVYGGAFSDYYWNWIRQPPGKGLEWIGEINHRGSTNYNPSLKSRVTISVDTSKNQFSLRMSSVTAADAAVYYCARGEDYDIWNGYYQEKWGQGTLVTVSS VL: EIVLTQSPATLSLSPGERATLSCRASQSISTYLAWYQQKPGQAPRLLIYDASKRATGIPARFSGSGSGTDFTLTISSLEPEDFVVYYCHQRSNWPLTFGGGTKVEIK ?
[out] 11.47
